- Test system: MGC-803
- assay-method-text: Antiproliferative activity against human MGC-803 cells
- Format: functional, cell-based

{"molecule": "O=c1[nH]cc(F)c(=O)[nH]1 [FLUOROURACIL]", "IC50": "7.6 µM"}
{"molecule": "C[C@]12CC[C@H](O)CC1=CCC1C2CC[C@@]2(C)C1CC[C@@H]2C1=CC2(C(=O)Nc3ccc(Cl)cc32)C(C#N)=C(N)N1 (stereo partly drawn)", "IC50": "4.2 µM"}
{"molecule": "C[C@]12CC[C@H](O)CC1=CCC1C2CC[C@@]2(C)C1CC[C@@H]2C1=CC2(C(=O)N(Cc3ccc(Cl)c(Cl)c3)c3ccccc32)C(C#N)=C(N)N1 (stereo partly drawn)", "IC50": "> 128 µM"}

----------
- Test system: MCF7
- assay-method-text: Anticancer activity against human MCF7 cells by MTT assay
- Assay type: functional, cell-based

{"compound": "CN1C[C@H](c2ccc(Cl)cc2Cl)[C@@H](C(=O)c2cc3ccccc3[nH]2)C12C(=O)Nc1ccccc12 (stereo partly specified)", "tested-system": "MCF7", "unit-string": "µM", "IC50": 15}

----------
- Tested on: A549
- assay-method-text: Antiproliferative activity against human A549 cells by MTT reduction assay
- Format: functional, cell-based
assay-readout: IC50 (µM)

{"compound": "Cc1cc2c(cc1C)C(Cl)=C(C1C3CCCN3C3(C(=O)Nc4ccc([N+](=O)[O-])cc43)C1C(=O)c1ccccc1)CCC2 (configuration not stated)", "assay-readout": "IC50", "test-value": 5.6}
{"compound": "Cc1cc2c(cc1C)C(Cl)=C(C1C3CCCN3C3(C(=O)Nc4ccc(I)cc43)C1C(=O)c1ccccc1)CCC2 (configuration not stated)", "assay-readout": "IC50", "test-value": 15.9}

----------
- System: PC-3
- assay-method-text: Antiproliferative activity against human PC-3 cells
- Type: functional, cell-based
pIC50: −log10 of the molar value.
assay-readout: pIC50

{"compound": "O=C(c1c[nH]c2ccccc12)[C@@H]1[C@@H](c2ccc(Cl)cc2Cl)[C@@H]2CSCN2[C@@]12C(=O)Nc1ccccc12", "assay-readout": "pIC50", "test-value": 5.22}
{"compound": "CC(O)(CS(=O)(=O)c1ccc(F)cc1)C(=O)Nc1ccc(C#N)c(C(F)(F)F)c1 (configuration not stated) [BICALUTAMIDE]", "assay-readout": "pIC50", "test-value": 5.89}
{"compound": "O=C1c2ccccc2C2Oc3c(c(=O)oc4ccccc34)C3(C(=O)N(c4ccc(Cl)cc4)c4ccccc43)C12 (configuration not stated)", "assay-readout": "pIC50", "test-value": 7.10}
{"compound": "Cc1noc([C@@H]2[C@H]3CCCN3[C@]3(C(=O)N(C)c4ccc(F)cc43)[C@@]23C(=O)N(C)c2ccccc23)c1[N+](=O)[O-]", "assay-readout": "pIC50", "test-value": 4.29}
{"compound": "O=C(c1c[nH]c2ccccc12)[C@@H]1[C@@H](c2ccc(C(F)(F)F)cc2)[C@@H]2CSCN2[C@@]12C(=O)Nc1ccccc12", "assay-readout": "pIC50", "test-value": 5.22}
{"compound": "Cc1noc([C@H]2[C@H](c3ccc(Cl)cc3Cl)CN(C)[C@]23C(=O)Nc2ccc(Cl)cc23)c1[N+](=O)[O-]", "assay-readout": "pIC50", "test-value": 4.88}
{"compound": "O=C1c2ccccc2C2Oc3c(c(=O)oc4ccccc34)C3(C(=O)Nc4ccc(Br)cc43)C12 (configuration not stated)", "assay-readout": "pIC50", "test-value": 7.52}

----------
- Tested on: Bacillus subtilis
- assay-method-text: Antibacterial activity against Bacillus subtilis
- Assay type: functional
assay-readout: MIC (µg/mL)

{"compound": "Cc1nn(-c2ccccc2)c2c1C1(C(=O)Nc3ccc([N+](=O)[O-])cc31)C1=C(CC(C)(C)CC1=O)O2 (centres undefined)", "unit-string": "µg/mL", "test-value": 64}
{"compound": "Cc1nn(-c2ccccc2)c2c1C1(C(=O)Nc3ccc(Br)cc31)c1c(C)nn(-c3ccccc3)c1O2", "unit-string": "µg/mL", "test-value": 256}
{"compound": "Cc1nn(-c2ccccc2)c2c1C1(C(=O)Nc3ccc(Br)cc31)C1=C(CCCC1=O)O2 (centres undefined)", "unit-string": "µg/mL", "test-value": 12}
{"compound": "O=C(N[C@H](CO)[C@H](O)c1ccc([N+](=O)[O-])cc1)C(Cl)Cl", "unit-string": "µg/mL", "test-value": 4}

----------
- Test system: LNCaP
- assay-method-text: Antiproliferative activity against human LNCaP cells
- Format: functional, cell-based
pIC50: −log10 of the molar value.
Catalogue of pIC50 values
assay-readout: pIC50

{"compound": "CC(O)(CS(=O)(=O)c1ccc(F)cc1)C(=O)Nc1ccc(C#N)c(C(F)(F)F)c1 (stereo not drawn) [BICALUTAMIDE]", "test-value": 5.82}
{"compound": "O=C1c2ccccc2C2Oc3c(c(=O)oc4ccccc34)C3(C(=O)Nc4ccc(Br)cc43)C12 (stereo not drawn)", "test-value": 5.72}
{"compound": "O=C1c2ccccc2C2Oc3c(c(=O)oc4ccccc34)C3(C(=O)N(c4ccc(Cl)cc4)c4ccccc43)C12 (stereo not drawn)", "test-value": 5.89}

----------
- System: DU-145
- assay-method-text: Cytotoxicity against human DU-145 cells incubated for 48 hrs by MTT assay
- Type: functional, cell-based
- test-conditions: DU-145, 48 h
IC50 strictly under 2000 nM means true (1); at 2000 nM or over means false (0).

{"molecule": "O=C1OCC2=C1C1(Nc3ccccc3N2)C(=O)N(Cc2ccccc2)c2ccccc21 (stereo not given)", "discrete-label": "true (1)"}
{"molecule": "Cc1ccc2c(c1)C1(Nc3ccccc3NC3=C1C(=O)OC3)C(=O)N2 (stereo not given)", "discrete-label": "true (1)"}
{"molecule": "COc1cccc2c1C(=O)c1c(O)c3c(c(O)c1C2=O)C[C@@](O)(C(=O)CO)C[C@@H]3O[C@H]1C[C@H](N)[C@H](O)[C@H](C)O1", "discrete-label": "true (1)"}
{"molecule": "O=C1OCC2=C1C1(Nc3ccc(Cl)cc3N2)C(=O)Nc2ccccc21 (stereo not given)", "discrete-label": "true (1)"}
{"molecule": "COc1cc([C@@H]2c3cc4c(cc3[C@@H](O[C@@H]3O[C@@H]5CO[C@@H](C)O[C@H]5[C@H](O)[C@H]3O)[C@H]3COC(=O)[C@H]23)OCO4)cc(OC)c1O [ETOPOSIDE]", "discrete-label": "false (0)"}

----------
- System: Micrococcus luteus
- assay-method-text: Antibacterial activity against Micrococcus luteus PTCC 1110
- Type: functional
The following compounds are shown together with reported MIC values.
assay-readout: MIC (µg/mL)

{"compound": "CN(C)[C@@H]1C(O)=C(C(N)=O)C(=O)[C@@]2(O)C(O)=C3C(=O)c4c(O)cccc4[C@@](C)(O)[C@H]3C[C@@H]12 [TETRACYCLINE]", "assay-readout": "MIC", "test-value": 4}
{"compound": "O=C1c2c(Cl)cccc2NC2(C(=O)Nc3ccc(Br)cc32)N1Nc1ccccc1 (stereo not given)", "assay-readout": "MIC", "test-value": 4}
{"compound": "O=C1c2c(Cl)cccc2NC2(C(=O)Nc3ccccc32)N1Nc1ccccc1 (stereo not given)", "assay-readout": "MIC", "test-value": 8}
{"compound": "O=C1c2ccccc2NC2(C(=O)Nc3ccc([N+](=O)[O-])cc32)N1Nc1ccccc1 (stereo not given)", "assay-readout": "MIC", "test-value": 8}
{"compound": "O=C1c2c(Cl)cccc2NC2(C(=O)Nc3ccc([N+](=O)[O-])cc32)N1Nc1ccccc1 (stereo not given)", "assay-readout": "MIC", "test-value": 2}

----------
- tested-system: Cholinesterase (Homo sapiens)
- Sequence (P06276 whole entry): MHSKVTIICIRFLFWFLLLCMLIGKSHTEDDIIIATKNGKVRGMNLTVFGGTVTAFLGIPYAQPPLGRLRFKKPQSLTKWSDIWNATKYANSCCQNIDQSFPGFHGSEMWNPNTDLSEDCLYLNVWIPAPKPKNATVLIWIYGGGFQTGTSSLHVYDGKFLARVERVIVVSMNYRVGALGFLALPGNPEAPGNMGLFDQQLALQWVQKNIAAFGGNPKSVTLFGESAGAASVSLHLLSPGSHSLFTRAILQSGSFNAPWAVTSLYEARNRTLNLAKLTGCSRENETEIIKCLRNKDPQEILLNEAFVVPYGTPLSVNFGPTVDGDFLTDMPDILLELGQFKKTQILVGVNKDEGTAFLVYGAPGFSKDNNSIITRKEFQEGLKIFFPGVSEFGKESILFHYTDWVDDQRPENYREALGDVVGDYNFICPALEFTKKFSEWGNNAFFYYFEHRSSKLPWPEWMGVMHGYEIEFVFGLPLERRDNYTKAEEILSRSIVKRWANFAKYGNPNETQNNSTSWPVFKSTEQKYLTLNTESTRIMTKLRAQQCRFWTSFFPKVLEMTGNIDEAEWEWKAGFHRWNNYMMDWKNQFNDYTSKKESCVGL
pIC50: −log10 of the molar value.
assay-readout: pIC50

{"molecule": "COc1cc2c(cc1OC)C(=O)[C@]1(C2)[C@H](c2ccccc2OC)[C@H](Cc2c[nH]c3ccccc23)NC12C(=O)Nc1ccccc12 (some centres undefined)", "test-value": 4.62}
{"molecule": "COc1cccc([C@@H]2[C@H](Cc3c[nH]c4ccccc34)NC3(C(=O)Nc4ccccc43)[C@@]23Cc2cc(OC)c(OC)cc2C3=O)c1 (some centres undefined)", "test-value": 5.08}
{"molecule": "COc1cc2c(cc1OC)C(=O)[C@]1(C2)[C@H](c2cccc([N+](=O)[O-])c2)[C@H](Cc2c[nH]c3ccccc23)NC12C(=O)Nc1ccccc12 (some centres undefined)", "test-value": 4.55}
{"molecule": "COc1cc2c(cc1OC)C(=O)[C@]1(C2)[C@H](c2ccc(C)cc2)[C@H](Cc2c[nH]c3ccccc23)NC12C(=O)Nc1ccccc12 (some centres undefined)", "test-value": 5.65}
